Known IC50 of a selection of compounds
- System: HeLa
- assay: Antiproliferative activity against human HeLa cells assessed as growth inhibition after 72 hrs by MTT assay
- Assay type: functional, cell-based
Report the value in µM with no unit label.

Worked examples, 3 compounds total:
test_smiles=C=C(C)[C@@H]1CC[C@]2(C(=O)Oc3ccc(C#N)cc3)CC[C@]3(C)[C@H](CC[C@@H]4[C@@]5(C)Cc6nccnc6[C@@](C)(COC(C)=O)[C@@H]5CC[C@]43C)[C@@H]12 units=µM obs_value=7.91
test_smiles=C=C(C)[C@@H]1CC[C@]2(C(=O)OCC(=O)OCC)CC[C@]3(C)[C@H](CC[C@@H]4[C@@]5(C)Cc6nccnc6[C@@](C)(CO)[C@@H]5CC[C@]43C)[C@@H]12 units=µM obs_value=17
test_smiles=C=C(C)[C@@H]1CC[C@]2(C(=O)OCC)CC[C@]3(C)[C@H](CC[C@@H]4[C@@]5(C)Cc6nccnc6[C@@](C)(CO)[C@@H]5CC[C@]43C)[C@@H]12 units=µM obs_value=15.1

// field: IC50; key: "C=C(C)[C@@H]1CC[C@]2(C(=O)OCCO)CC[C@]3(C)[C@H](CC[C@@H]4[C@@]5(C)Cc6nccnc6[C@@](C)(COC(C)=O)[C@@H]5CC[C@]43C)[C@@H]12" ; value = 17.5

// field: IC50; key: "C=CCOC(=O)[C@]12CC[C@@H](C(=C)C)[C@@H]1[C@H]1CC[C@@H]3[C@@]4(C)Cc5nccnc5[C@@](C)(CO)[C@@H]4CC[C@@]3(C)[C@]1(C)CC2" ; value = 11

// field: IC50; key: "C=C(C)[C@@H]1CC[C@]2(C(=O)O)CC[C@]3(C)[C@H](CC[C@@H]4[C@@]5(C)Cc6nccnc6[C@@](C)(COC(C)=O)[C@@H]5CC[C@]43C)[C@@H]12" ; value = 14.6

// field: IC50; key: "C=C(C)[C@@H]1CC[C@]2(C(=O)O)CC[C@]3(C)[C@H](CC[C@@H]4[C@@]5(C)Cc6nccnc6[C@@](C)(CO)[C@@H]5CC[C@]43C)[C@@H]12" ; value = 19.6

// field: IC50; key: "C=C(C)[C@@H]1CC[C@]2(C(=O)N3CCOCC3)CC[C@]3(C)[C@H](CC[C@@H]4[C@@]5(C)Cc6nccnc6[C@@](C)(COC(C)=O)[C@@H]5CC[C@]43C)[C@@H]12" ; value = 5.13

// field: IC50; key: "C=C(C)[C@@H]1CC[C@]2(C(=O)OCC(=O)O)CC[C@]3(C)[C@H](CC[C@@H]4[C@@]5(C)Cc6nccnc6[C@@](C)(CO)[C@@H]5CC[C@]43C)[C@@H]12" ; value = 10.1

// field: IC50; key: "C=C(C)[C@@H]1CC[C@]2(C(=O)O[C@@H]3O[C@H](CO)[C@@H](O)[C@H](O)[C@H]3O)CC[C@]3(C)[C@H](CC[C@@H]4[C@@]5(C)Cc6nccnc6[C@@](C)(CO)[C@@H]5CC[C@]43C)[C@@H]12" ; value = 15.9

---

- System: HeLa
- assay: Antiproliferative activity against human HeLa cells assessed as growth inhibition after 72 hrs by MTT assay
- Type: functional, cell-based
Known IC50 of a selection of compounds
Report the value in µM with no unit label.

// field: IC50; key: "C=C(C)[C@@H]1CC[C@]2(C(=O)OCc3ccccc3)CC[C@]3(C)[C@H](CC[C@@H]4[C@@]5(C)Cc6nccnc6[C@@](C)(CO)[C@@H]5CC[C@]43C)[C@@H]12" ; value = 12.8

// field: IC50; key: "C=C(C)[C@@H]1CC[C@]2(C(=O)NCC(=O)OC)CC[C@]3(C)[C@H](CC[C@@H]4[C@@]5(C)Cc6nccnc6[C@@](C)(COC(C)=O)[C@@H]5CC[C@]43C)[C@@H]12" ; value = 10.9

// field: IC50; key: "C=C(C)[C@@H]1CC[C@]2(C(=O)OCCO)CC[C@]3(C)[C@H](CC[C@@H]4[C@@]5(C)Cc6nccnc6[C@@](C)(CO)[C@@H]5CC[C@]43C)[C@@H]12" ; value = 20.7

// field: IC50; key: "C=C(C)[C@@H]1CC[C@]2(C(=O)OCc3ccc(-c4ccccc4C#N)cc3)CC[C@]3(C)[C@H](CC[C@@H]4[C@@]5(C)Cc6nccnc6[C@@](C)(CO)[C@@H]5CC[C@]43C)[C@@H]12" ; value = 9.32
